Biological target: Oxytocin receptor (Rattus norvegicus, UniProt P70536)
Sequence (P70536 whole entry): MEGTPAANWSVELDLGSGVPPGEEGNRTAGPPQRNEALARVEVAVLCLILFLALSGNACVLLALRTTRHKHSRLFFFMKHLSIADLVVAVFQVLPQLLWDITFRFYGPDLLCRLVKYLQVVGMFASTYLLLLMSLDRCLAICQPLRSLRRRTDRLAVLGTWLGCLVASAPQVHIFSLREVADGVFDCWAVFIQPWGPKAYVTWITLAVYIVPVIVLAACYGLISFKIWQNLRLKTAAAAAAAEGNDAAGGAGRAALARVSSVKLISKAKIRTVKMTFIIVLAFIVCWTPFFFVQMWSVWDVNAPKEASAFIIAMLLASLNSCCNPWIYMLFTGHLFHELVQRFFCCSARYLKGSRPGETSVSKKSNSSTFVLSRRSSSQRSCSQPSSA
Test: ChEBML_145031
pIC50: −log10 of the molar value.

smiles.text | pIC50
CC1(C)[C@@H]2CC[C@@]1(CS(=O)(=O)N1CCC3(CCc4ccccc43)CC1)[C@@H](n1c(O)c(Cc3cnc[nH]3)[nH]c1=O)C2 | 7.89

====

Target: Oxytocin receptor (Rattus norvegicus, UniProt P70536)
Experiment: Inhibition of radioligand [3H]oxytocin binding at the oxytocin (OT) receptor in rat uterine tissue
pIC50: −log10 of the molar value.
measured.metric: pIC50

smiles.text | reported.result
CC1(C)[C@@H]2CC[C@@]1(CS(=O)(=O)N1CCC3(CCc4ccccc43)CC1)[C@@H](n1c(O)c(Cc3cnc[nH]3)[nH]c1=O)C2 | 7.89

Reference source: BindingDB's records for doi:10.1021/jm00077a002
